READOUT LABEL: melting point

Some solved entries appear below for comparison.
>  <MOLECULE>
CCNc1nc(SC)ncc1CNc1cc(OC)cc(OC)c1

>  <melting point>
100 to 105 °C

$$$$
>  <MOLECULE>
CCOC(=O)c1cccc(NC(=O)C2=C(C)OCCS2)c1

>  <melting point>
100 to 102 °C

$$$$
>  <MOLECULE>
CCOC(=O)C(=C(c1ccc(F)cc1)c1ccc(F)cc1)c1nnn(C)n1

>  <melting point>
117 to 118 °C

$$$$
>  <MOLECULE>
CCS(=O)(=O)C(NC(C)=O)C(=O)NCc1ccccc1 (centres undefined)

>  <melting point>
161 to 163 °C

$$$$
>  <MOLECULE>
Cc1ccc(N)c(Cl)c1C#N

>  <melting point>
117 to 119 °C

$$$$
>  <MOLECULE>
CN(C)C(Cl)=Nc1snc(C(C)(C)C)c1C#N

>  <melting point>
94 to 100 °C

$$$$
>  <MOLECULE>
CCc1ccc2oc(C(=O)Nc3ccc(-c4ccc(S(=O)(=O)NC(C(=O)O)C(C)C)cc4)cc3)c(C)c2c1OC (centres undefined)

>  <melting point>
225 to 228 °C

$$$$
>  <MOLECULE>
COC(=O)c1cc(-n2cnc(Br)c2)c(C(F)(F)F)cc1[N+](=O)[O-]

>  <melting point>
90 °C

$$$$

The value of melting point measured for the molecule CSc1cc(C(F)(F)F)nn1-c1ccc(NC(=O)c2ccncc2F)cc1 turned out to be 142 to 143 °C

The value of melting point measured for the molecule C=CCNC(=O)c1ccccc1C(c1ccc(O)cc1)c1ccc(O)cc1 turned out to be 179 to 181 °C

The value of melting point measured for the molecule CC(C)Oc1ccc(-c2nn(C(C)c3oc4cccc(N5CCOCC5)c4c(=O)c3-c3cccc(F)c3)c3ncnc(N)c23)cc1F (centres undefined) turned out to be 227 to 229 °C

The value of melting point measured for the molecule CCCCOc1ccc(C2=CC=CN3CCS(=O)(=O)N=C23)cc1 turned out to be 230 to 232 °C

The value of melting point measured for the molecule CCc1oc2ccccc2c1C(=O)NCc1ccc2c(Br)c(OC(Cc3ccccc3)C(=O)O)ccc2c1 (centres undefined) turned out to be 162 to 165 °C

The value of melting point measured for the molecule CCCc1c(OCCOc2cccc(C(=O)OCC)c2)ccc(C(C)=O)c1O turned out to be 58 to 60 °C

The value of melting point measured for the molecule S=c1nc2ccc(Br)cn2c(=S)n1-c1ccc(Br)cn1 turned out to be 77 °C

The value of melting point measured for the molecule O=C(OCC1OC(n2cnc3c(NOCc4ccccc4)nc(Cl)nc32)C(OC(=O)c2ccccc2)C1OC(=O)c1ccccc1)c1ccccc1 (centres undefined) turned out to be 115 to 119 °C

The value of melting point measured for the molecule CCCCCCCCCCCCNC=C1C(=O)ON=C1C turned out to be 57 °C

The value of melting point measured for the molecule O=C(NCc1ccccc1)c1ccnc(NC(=O)C2CCCC2)c1 turned out to be 55 to 57 °C

The value of melting point measured for the molecule O=C(O)C1=CC(CF)(CF)Oc2ccc([N+](=O)[O-])cc21 turned out to be 171 to 172 °C

====

Reported melting point by item:

Some solved entries appear below for comparison.
>  <MOLECULE>
CCCn1c(=O)c2c(NC)n[nH]c2n(Cc2ccc(Cl)cc2)c1=O

>  <melting point>
305 to 307 °C

$$$$
>  <MOLECULE>
COc1ccc2oc(C(=O)c3cc(F)ccc3N3CCOCC3)cc2c1

>  <melting point>
85 to 88 °C

$$$$
>  <MOLECULE>
CC1CC(=O)NN=C1c1ccc2c(c1)N(C)C(=O)CO2 (centres undefined)

>  <melting point>
215 to 218 °C

$$$$
>  <MOLECULE>
COc1cc(C(C)=O)ccc1OCCCN1CCC(c2noc3ccc(F)cc23)CC1

>  <melting point>
103 to 105 °C

$$$$
>  <MOLECULE>
CCN(C(=O)OC(C)(C)C)C(Cc1ccccc1)C(=O)NC(CCSC)C(=O)NCC(=O)NC(Cc1ccccc1)C(=O)NC1C2CC3CC(C2)CC1C3 (centres undefined)

>  <melting point>
175 to 178 °C

$$$$
>  <MOLECULE>
CCOC(=O)Cc1c(-c2ccccc2)c2cc(COC(C)=O)c(COC(C)=O)cc2oc1=O

>  <melting point>
95 to 96 °C

$$$$
>  <MOLECULE>
COc1ccccc1NC(=O)Nc1nc(NC(C)C)nc(N(CCC(=O)O)Cc2ccc(Cl)c(Cl)c2)n1

>  <melting point>
95 to 101 °C

$$$$
>  <MOLECULE>
O=[N+]([O-])c1cc(OCc2ccccc2)ccc1CCBr

>  <melting point>
30 to 34 °C

$$$$

Next item in the queue.
The value of melting point measured for the molecule CN(C(=O)COc1ccccc1)c1ccc(OC23CC4CC(CC(C4)C2)C3)cc1 turned out to be 89 to 91 °C

====

READOUT LABEL: melting point

Some solved entries appear below for comparison.
>  <MOLECULE>
COc1ccc2[nH]c3cc(C(=O)OCc4ccccc4)c4c(c3c2c1)C(=O)NC4=O

>  <melting point>
245 °C

$$$$
>  <MOLECULE>
C=CCOC(=O)c1cccc2c1N=C(c1ccccc1Cl)CC2=O

>  <melting point>
121 °C

$$$$

The value of melting point measured for the molecule CCCCCCCCCCCCCCCCCCOC(=O)C(N)Cc1ccc(O)cc1 (configuration not stated) turned out to be 80 to 83 °C

The value of melting point measured for the molecule Cn1cc(Nc2ccc([N+](=O)[O-])cc2[N+](=O)[O-])cn1 turned out to be 149 °C

The value of melting point measured for the molecule Cc1ncc(CO)cc1OC(=O)c1cccs1 turned out to be 59 to 61 °C

The value of melting point measured for the molecule CSc1cnc2ccccc2c1 turned out to be 40 °C

The value of melting point measured for the molecule O=C(Nc1nc(C(Cl)(Cl)Cl)ns1)c1ccccc1 turned out to be 190 °C

The value of melting point measured for the molecule Cc1oc2c(-n3c(=O)cc(C(F)(F)F)n(C)c3=O)c(F)cc(Cl)c2c1CC(N)=O turned out to be 127 to 129 °C

The value of melting point measured for the molecule Cc1cc(Oc2ncc(Cl)cc2Cl)n[nH]1 turned out to be 109 to 111 °C

The value of melting point measured for the molecule Cc1cc(-c2ccc(Cl)cc2)nc(-n2cnc(-c3ccc(S(N)(=O)=O)cc3)c2)n1 turned out to be 312 °C

The value of melting point measured for the molecule CC1(C)CC(=O)C2=C(C1)NC1=C(C(=O)CC(C)(C)C1)C2c1ccc(Cl)cc1Cl turned out to be > 300 °C

The value of melting point measured for the molecule CCOC(=S)c1ncncc1C turned out to be 99 to 100 °C

The value of melting point measured for the molecule COc1ccc(C=CC2=NNC(C)Cc3cc(OC)c(OC)cc32)c(OC)c1 (configuration not stated) turned out to be 118 to 120 °C

The value of melting point measured for the molecule C=CCOc1cc2c(cc1C)OC1(CC2(C)C)CC(C)(C)c2cc(OCC=C)c(C)cc2O1 turned out to be 98 to 100 °C

====

Reported melting point by item:

Some solved entries appear below for comparison.
>  <COMPOUND>
OC(CCCc1ccccc1)c1ccc(OCc2ccc3ccccc3n2)cc1 (stereo unspecified)

>  <OBSERVED>
118 to 119 °C

$$$$
>  <COMPOUND>
CC(C(=O)O)c1ccc2c(c1)C(=O)CC(C(C)(C)C)O2 (stereo unspecified)

>  <OBSERVED>
117 to 118 °C

$$$$
>  <COMPOUND>
COc1cccc(OC)c1C(=O)P(=O)(CC(C)C)C(=O)c1c(C)cc(C)cc1C (stereo unspecified)

>  <OBSERVED>
105 to 106 °C

$$$$
>  <COMPOUND>
Cn1ncc2cc(NC(=O)Nc3ccc(C(F)(F)F)cc3)ccc21

>  <OBSERVED>
252 to 254 °C

$$$$

Next item in the queue.
The value of melting point measured for the compound O=Cc1ccc(/C=C/c2ccncc2)nc1 turned out to be 131 to 136 °C

====

READOUT LABEL: melting point

The value of melting point measured for the compound CC(=O)Nc1ccc2ncnc(Nc3cccc(Cl)c3)c2c1 turned out to be 260 to 262 °C

The value of melting point measured for the compound COC(=O)C(C(=O)OC)C(Cc1c(N)cccc1C(F)(F)F)c1ccc(OC)cc1 (stereo unspecified) turned out to be 111 to 113 °C

The value of melting point measured for the compound Oc1cccc(/C=C/c2ccccc2)c1 turned out to be 125 to 126 °C

The value of melting point measured for the compound c1n[nH]c2c1CCc1[nH]ncc1-2 turned out to be 219 to 221 °C

The value of melting point measured for the compound CCC(C)COc1ccc(-c2ccc(OS(=O)(=O)c3ccc(C)cc3)cc2)cc1 (stereo unspecified) turned out to be 94 to 97 °C

The value of melting point measured for the compound NC(Cc1ccc(O)c(O)c1)P(O)O (stereo unspecified) turned out to be 237 to 238 °C

Each recorded value in this set is attributed to a melting point compilation (Tetko et al.; mined from patent text by program, amines drawn as free bases though some values may be those of a salt).
